Data origin, for the record: ChEMBL document CHEMBL1130075

molecular target: Sodium/hydrogen exchanger (Oryctolagus cuniculus, UniProt P23791+P50482+P26432); experiment: Inhibition of 5-N-(ethyl isopropyl)-amiloride[EIPA]-sensitive Na+ uptake into acidified rabbit erythrocytes.; format: functional
MEASURED_QUANTITY: IC50 (nM)

Consider the reported IC50 for these compounds:
{"COMPOUND": "Cc1cc(N2CCCC2)c(S(C)(=O)=O)cc1C(=O)N=C(N)N", "MEASURED_QUANTITY": "IC50", "OBS_VALUE": 11}
{"COMPOUND": "Cc1cc(N2CCCC(O)C2)c(S(C)(=O)=O)cc1C(=O)N=C(N)N (stereo unspecified)", "MEASURED_QUANTITY": "IC50", "OBS_VALUE": 30}
{"COMPOUND": "Cc1cc(OC2CCCC2)c(S(C)(=O)=O)cc1C(=O)N=C(N)N", "MEASURED_QUANTITY": "IC50", "OBS_VALUE": 27}
{"COMPOUND": "Cc1cc(SC(C)C)c(S(C)(=O)=O)cc1C(=O)N=C(N)N", "MEASURED_QUANTITY": "IC50", "OBS_VALUE": 12}
{"COMPOUND": "CS(=O)(=O)c1cc(C(=O)N=C(N)N)ccc1-n1ccnc1", "MEASURED_QUANTITY": "IC50", "OBS_VALUE": 150}

I = COc1cc(N2CCC(N)CC2)c(S(C)(=O)=O)cc1C(=O)N=C(N)N
II = CC(C)c1ccc(C(=O)N=C(N)N)cc1S(C)(=O)=O [CARIPORIDE]
QUERY: Which value of IC50 is numerically greater: that of I or that of II ? Please identify the chosen entry by its label.
RESULT: I

A = Cc1cc(C#N)c(S(C)(=O)=O)cc1C(=O)N=C(N)N
B = Cc1cc(Nc2cccc(Cl)c2)c(S(C)(=O)=O)cc1C(=O)N=C(N)N
QUERY: Smaller IC50 value, A vs B ? Label of pick, please.
RESULT: B

P = CS(=O)(=O)c1cc(C(=O)N=C(N)N)c(Cl)cc1N1CCCC(O)C1 (stereo unspecified)
Q = CCSc1cc(C)c(C(=O)N=C(N)N)cc1S(C)(=O)=O
QUERY: Rank P against Q by their IC50 values and give the higher one. // caller expects the label of the chosen entry
RESULT: P
(P: 60 nM, Q: 5.9 nM)

----------
biological target: Sodium/hydrogen exchanger (Oryctolagus cuniculus, UniProt P23791+P50482+P26432); assay: Inhibition of 5-N-(ethyl isopropyl)-amiloride[EIPA]-sensitive Na+ uptake into acidified rabbit erythrocytes.; type: functional
MEASURED_QUANTITY: IC50 (nM)

Some compounds with recorded IC50:
{"COMPOUND_STRUCTURE": "Cc1cc(Oc2cncc(Cl)c2)c(S(C)(=O)=O)cc1C(=O)N=C(N)N", "MEASURED_QUANTITY": "IC50", "OBS_VALUE": 14}
{"COMPOUND_STRUCTURE": "Cc1cc(-c2cc(Cl)cc(Cl)c2)c(S(C)(=O)=O)cc1C(=O)N=C(N)N", "MEASURED_QUANTITY": "IC50", "OBS_VALUE": 130}
{"COMPOUND_STRUCTURE": "CCOc1cc(C)c(C(=O)N=C(N)N)cc1S(C)(=O)=O", "MEASURED_QUANTITY": "IC50", "OBS_VALUE": 19}
{"COMPOUND_STRUCTURE": "Cc1cc(Oc2ccccc2)c(S(C)(=O)=O)cc1C(=O)N=C(N)N", "MEASURED_QUANTITY": "IC50", "OBS_VALUE": 10}
{"COMPOUND_STRUCTURE": "Cc1c(C(=O)N=C(N)N)cc(S(C)(=O)=O)cc1-n1cccc1", "MEASURED_QUANTITY": "IC50", "OBS_VALUE": 100}
{"COMPOUND_STRUCTURE": "Cc1c(C(=O)N=C(N)N)cc(S(C)(=O)=O)c(C#N)c1C", "MEASURED_QUANTITY": "IC50", "OBS_VALUE": 370}

P = CCc1cc(-n2ccc(=O)cc2)c(S(C)(=O)=O)cc1C(=O)N=C(N)N
Q = CCCSc1cc(C)c(C(=O)N=C(N)N)cc1S(C)(=O)=O
R = Cc1cc(-c2ccco2)c(S(C)(=O)=O)cc1C(=O)N=C(N)N
S = CS(=O)(=O)c1cc(C(=O)N=C(N)N)ccc1C1CCCCC1
QUERY: Arrange items by their IC50 values in increasing order. Give the labels in the order specified.
RESULT: Q, R, S, P
(Q: 6.8 nM, R: 16 nM, S: 340 nM, P: 930 nM)
